# MEASURED ON: T1, biotinylated CRH (human and mouse, UniProt P01143 145-185 (rat entry), not fully specified; biotin; which end is not stated for the result (NT-biotin and CT-biotin forms were used))
# T1 construct: also called biotin-CRH; CRH (NT biotin)
# T1 peptide: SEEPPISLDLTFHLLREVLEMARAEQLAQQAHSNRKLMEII
# PROTOCOL TEXT: ELISA, CRH (NT biotin)
ATTRIBUTE MEASURED: binding result

- PR302332 (antibody, human IgG1, kappa, V domains shown) VH: QIQLVQSGPELKKPGETVKISCKASGYTFTNFGMHWVKQAPGKVLKWMGWINTYTGEPIYAADFKGRFAFSLETSASTAYLQINNLKNEDTATYFCSRSTMITTGGVFAYWGQGTLVTVSA VL: DVLMAQTPLSLPVSLGDQASISCRSSQSIVHSDGNTYLEWYLQKPGQSPKLLIYKVSNRFSGVPDRFSGSGSGTDFTLKISRVEAEDLGVYYCFQGSHVPWTFGGGTKLEIKR: binds
- PR302335 (antibody, human IgG1, kappa, V domains shown) VH: DVQLVESGGGLVQPGGSRKLSCAASGFTFSSFGMHWVRQAPEKGLEWVAYISSGSTIFYYADTVKGRFTISRDNPKNTLFLQMTSLRSEDTAMYYCARDITTATFAFWGQGTLVTVSA VL: DVVLTQTPLSLPVSLGDQVSISCRSSQNLLHNNGNTYLHWYLQKPGQSPRLLIYKVSNRFSGVPDRFSGSGSGTDFTLKITRVEAEDLGVYFCSQSTHIPWTFGGGTKLEIKR: binds
- PR302312 (antibody, human IgG1, kappa, V domains shown) VH: EVQLQQSGPELVKPGASVKMSCKASGYTFTDYFMKWMKQSHGKSLEWIGVINPNNGDTFYNQNFKGKATLTVDKSSSTAYMQLNSLTSEDSAVYYCTRGTARALFAYWGQGTLVTVSA VL: DVLMTQTPLSLPVSLGDQASISCRSSQSIVHSDGNTYLEWYLQRPGQSPKLLIYKVSNRFSGVPDRFSGSGSGTDFTLKISRVGAEDLGVYYCFQGSHVPWTFGGGTKLEVKR: binds
